- TARGET_UNDER_TEST: Cathepsin B (Homo sapiens)
- ASSAY_METHOD_TEXT: Mixed inhibition of human recombinant cathepsin B endopeptidase activity using Z-Arg-Arg-AMC substrate assessed as inhibition constant for enzyme-substrate-inhibitor complex
PARAMETER: Ki (µM)
Only the number, expressed in µM, is required.

O=[N+]([O-])c1cc(CNCc2ccccc2)c(O)c2ncccc12
58
O=[N+]([O-])c1ccc(NCc2ccccc2)c2ncccc12
127
C[C@@H]1CCCCN1Cc1cc([N+](=O)[O-])c2cccnc2c1O
116

Form field Ki, entry CN(Cc1ccccc1)c1ccc([N+](=O)[O-])c2cccnc12 : 137

Form field Ki, entry O=[N+]([O-])c1ccc(O)c2ccccc12 : 84
